# target system: zebrafish Mate3 (Danio rerio, UniProt A1L1P9)
# Sequence (A1L1P9 1-590): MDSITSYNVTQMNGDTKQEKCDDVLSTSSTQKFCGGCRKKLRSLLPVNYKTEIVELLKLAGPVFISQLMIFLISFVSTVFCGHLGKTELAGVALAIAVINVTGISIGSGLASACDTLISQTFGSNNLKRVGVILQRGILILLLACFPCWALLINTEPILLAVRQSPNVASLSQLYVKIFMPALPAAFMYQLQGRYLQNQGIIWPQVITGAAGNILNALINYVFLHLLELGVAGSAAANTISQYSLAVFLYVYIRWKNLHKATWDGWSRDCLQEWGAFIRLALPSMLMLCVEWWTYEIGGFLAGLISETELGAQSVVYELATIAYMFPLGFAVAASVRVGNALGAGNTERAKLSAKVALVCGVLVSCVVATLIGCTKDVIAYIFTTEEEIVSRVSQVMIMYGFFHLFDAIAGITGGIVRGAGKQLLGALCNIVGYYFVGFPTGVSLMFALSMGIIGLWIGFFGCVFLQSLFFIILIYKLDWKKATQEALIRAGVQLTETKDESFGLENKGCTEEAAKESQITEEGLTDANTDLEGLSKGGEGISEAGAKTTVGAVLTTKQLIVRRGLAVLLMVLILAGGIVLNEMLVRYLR
# measurement protocol: DAPI inhibition assay, Mate3
# Type: cell-based
# Set-up: expressed in transfected cells; host or cells: HEK293T
# test context: read-out: IC50
measurement type: IC50

Qu. What measured IC50 goes with C=C[C@H]1C[N@@]2CC[C@H]1C[C@@H]2[C@@H](O)c1ccnc2ccc(OC)cc12 [Quinidine, quinidine, reference compound] ?
Ans. 58.4 µM

* * *

# target system: zebrafish Mate7 (Danio rerio, UniProt U3PTD6)
# Sequence (U3PTD6 entry or part of it): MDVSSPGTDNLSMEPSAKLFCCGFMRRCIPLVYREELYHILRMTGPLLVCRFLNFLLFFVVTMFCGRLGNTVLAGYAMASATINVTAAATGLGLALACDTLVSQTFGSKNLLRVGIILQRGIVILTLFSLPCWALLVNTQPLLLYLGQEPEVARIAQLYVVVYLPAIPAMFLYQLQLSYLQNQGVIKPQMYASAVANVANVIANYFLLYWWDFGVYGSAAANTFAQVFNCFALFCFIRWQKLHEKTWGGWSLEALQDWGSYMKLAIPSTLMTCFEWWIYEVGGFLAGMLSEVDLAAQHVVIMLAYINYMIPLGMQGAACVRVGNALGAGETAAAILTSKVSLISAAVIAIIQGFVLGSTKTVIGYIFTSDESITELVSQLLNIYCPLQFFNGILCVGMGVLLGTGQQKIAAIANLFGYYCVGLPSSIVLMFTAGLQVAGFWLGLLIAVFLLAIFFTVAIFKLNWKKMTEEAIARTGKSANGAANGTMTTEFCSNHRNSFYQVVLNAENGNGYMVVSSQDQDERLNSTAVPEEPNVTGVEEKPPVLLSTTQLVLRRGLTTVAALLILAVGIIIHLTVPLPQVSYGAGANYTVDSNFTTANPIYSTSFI
# measurement protocol: DAPI inhibition assay, Mate7
# Type: cell-based
# test context: Mate7; inhibition of DAPI (2.5 μM) uptake; n = 3; NE = no effect in the compound solubility range; read-out: IC50
Counter-ions that a name gives are not always drawn.
Kindly supply the reported pIC50 values for the records listed here.
One number for each entry, as −log10 of the molar value.

[
  {
    "molecule": "C[n+]1ccc(-c2ccccc2)cc1 [MPP^+, 1-methyl-4-phenylpyridinium, reference compound]",
    "value measured": 4.03
  },
  {
    "molecule": "CC[N+](CC)(CC)CC [TEA, tetraethylammonium, reference compound]",
    "value measured": 2.48
  }
]

Now let's try a different one.
Qu. Param readout = pIC50; param system = zebrafish Mate7 (Danio rerio, UniProt U3PTD6); param query = C[C@]12CC[C@H](OS(=O)(=O)O)CC1=CC[C@@H]1[C@@H]2CC[C@]2(C)C(=O)CC[C@@H]12 [DHEAS, dehydroepiandrosterone sulfate] ; response: value
Ans. 4.22
